The reported numbers originate from PubChem BioAssay AID1240.

# Study system: Bcl-2-like protein 10 (Homo sapiens)
# Assay comment: TR3 peptide-Bcl-B binding displacers, biochemical primary FP assay, phenotype converters (AID 1240);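 also: 0% = Bcl-B with tracer peptide and DMSO and 100% = tracer peptide lacking Bcl-B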
# Conditions: GST-Bcl-B / FITC-TR3 peptide fluorescence polarization; stronger effect = higher value; compound at 3.75 mg/L
In all, about 50,000 compounds went through this assay and about 800 (1.6%) showed an effect of 50% or more. What follows is part of a selection rich in strong results, with near analogues and random picks from the rest.
// label 0 strictly below 7% in displacement; label 1 otherwise

>>> answer_label("Cc1ccc(NC(=S)NN2CCN(C)CC2)cc1")
"label 0"
>>> answer_label("CC(C)COc1ccc(C(=O)Nc2ccc(-c3nc4ncccc4o3)cc2)cc1")
"label 1"

Query: Confirm if displacement reported for the compound `CCN(CC)c1ccc(/C=C2/C(=O)NN(c3cccc(Cl)c3)C2=O)c(O)c1` is 7% or above.
Reply: label 0

Query: # check: displacement of `CCCCOc1ccc(C(=O)Nc2ccc(-c3nc4ncccc4o3)cc2)cc1` is greater than or equal to 7%
Reply: label 1

Query: # bool: displacement of `COc1ccc(N/C(C)=C/C(=O)c2ccc(Cl)cc2)c(OC)c1` >= 7%
Reply: label 0

Query: Decide: is the reported value of displacement for `CCN(CC)c1ccc(/C=C2/C(=O)NN(c3ccc(C)c(Cl)c3)C2=O)c(O)c1` equal to or greater than 7%?
Reply: label 1

Query: Has `O=C(Nc1ccc(-c2nc3ncccc3o2)cc1)c1cccc(OCc2ccccc2)c1` a recorded displacement greater than or equal to 7%?
Reply: label 1

Query: Evaluate CCSc1nnc2c(n1)OC(c1ccc(C(=O)O)cc1)Nc1ccccc1-2 (stereo not given) : displacement at minimum 7%?
Reply: label 1

Query: Entry CCCOc1ccc(N2C(=O)C3C4C=CC(C4=C(C)C)C3C2=O)cc1 (stereo not given) : is its displacement no less than 7%?
Reply: label 1

Query: // inclusive: displacement at least 7%? input: CSc1nnc2c(n1)OC(c1ccc(OCc3ccccc3)cc1)Nc1ccccc1-2 (stereo not given)
Reply: label 1

----------
# Study system: Bcl-2-like protein 10 (Homo sapiens) (UniProt Q9HD36)
# Sequence (Q9HD36 whole entry, looked up): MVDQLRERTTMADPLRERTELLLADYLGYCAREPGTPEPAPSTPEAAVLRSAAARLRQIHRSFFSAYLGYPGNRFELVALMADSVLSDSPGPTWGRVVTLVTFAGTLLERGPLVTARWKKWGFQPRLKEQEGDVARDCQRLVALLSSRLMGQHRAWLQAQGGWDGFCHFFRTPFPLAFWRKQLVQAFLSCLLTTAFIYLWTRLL
# Assay comment: TR3 peptide-Bcl-B binding displacers, biochemical primary FP assay, phenotype converters (AID 1240);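 also: 0% = Bcl-B with tracer peptide and DMSO and 100% = tracer peptide lacking Bcl-B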
# Conditions: GST-Bcl-B / FITC-TR3 peptide fluorescence polarization; stronger effect = higher value; compound at 3.75 mg/L
The whole screen tested about 50,000 compounds, of which about 800 (1.6%) showed an effect of 50% or more. This excerpt belongs to a sample that is enriched for strong results.
Experimental endpoint: displacement

# count of solved cases: 2
>>> value("C=C(C)CSc1nnc2n(-c3ccc(OC)cc3)c(=O)c3c4c(sc3n12)CCCC4")
"3%"
>>> value("Cc1c(NC(=O)c2ccc(-c3cccc([N+](=O)[O-])c3)o2)cccc1-c1nc2ccccc2s1")
"3.7%"

Query: Give the reported displacement for `Cc1ccc(-c2ccccc2)n1-c1ccc(O)c(C(=O)O)c1` (system: Bcl-2-like protein 10 (Homo sapiens) (UniProt Q9HD36)).
Reply: 20.4%

Query: For Bcl-2-like protein 10 (Homo sapiens) (UniProt Q9HD36), provide displacement of `CC1(C)CC(NC(=O)c2ccccc2F)CC(C)(C)N1` please.
Reply: -12.3%

Query: Request - read-out displacement | tested on Bcl-2-like protein 10 (Homo sapiens) (UniProt Q9HD36) | compound `COc1cccc(OC)c1C(=O)Nc1ccc(C(=O)Oc2ccccc2)c(O)c1`
Reply: -9.1%

----------
Collected displacement values appear next to each entry.
# Study system: Bcl-2-like protein 10 (Homo sapiens) (UniProt Q9HD36)
# Assay comment: TR3 peptide-Bcl-B binding displacers, biochemical primary FP assay, phenotype converters (AID 1240);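 also: 0% = Bcl-B with tracer peptide and DMSO and 100% = tracer peptide lacking Bcl-B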
# Conditions: GST-Bcl-B / FITC-TR3 peptide fluorescence polarization; stronger effect = higher value; compound at 3.75 mg/L
Among all 50,000 compounds or so, about 800 (1.6%) showed an effect of 50% or more. Only a selection was taken, and strong results are over-represented in it overall.
State just the number; it will be interpreted in %.

Sample records with displacement:
>>> value("Cc1cc(C=C2C(=O)c3ccccc3C2=O)c(C)n1-c1cccnc1")
-15.5
>>> value("Cc1cc(C=C2C(=O)c3ccccc3C2=O)c(C)n1-c1ccc(N2CCOCC2)cc1")
0.7
>>> value("O=C(NC(=S)Nc1ccc(N2CCCCC2)c(Cl)c1)c1ccco1")
-7.1

Query: Which displacement is reported for this molecule? CCOC(=O)C1=C(C)N=c2s/c(=C\c3ccc(C)o3)c(=O)n2C1c1ccc(SC)cc1 (stereo not given)
Reply: 65.3

----------
# Study system: Bcl-2-like protein 10 (Homo sapiens) (UniProt Q9HD36)
# Assay comment: TR3 peptide-Bcl-B binding displacers, biochemical primary FP assay, phenotype converters (AID 1240);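 also: 0% = Bcl-B with tracer peptide and DMSO and 100% = tracer peptide lacking Bcl-B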
# Conditions: GST-Bcl-B / FITC-TR3 peptide fluorescence polarization; stronger effect = higher value; compound at 3.75 mg/L
Among all 50,000 compounds or so, about 800 (1.6%) showed an effect of 50% or more. The entries come from a sample that favours strong results as a whole.
Recorded displacement, one value per entry.
State the answer as a number, implicitly in %.

Worked examples follow.
>>> value("CC(=O)c1cc2c(N)c(C(=O)c3ccc(Br)cc3)sc2nc1C")
10.1
>>> value("COc1ccc(N(CC(=O)NCc2ccccc2)S(=O)(=O)c2ccc(C)cc2)cc1")
-1.4
>>> value("Cc1ccc(C2/C(=C(\\O)c3ccccc3)C(=O)C(=O)N2c2nncs2)cc1 (stereo unspecified)")
11.3
>>> value("O=C(O)C1C2CCC(O2)C1C(=O)N1CCN(c2ccc(F)cc2)CC1 (stereo unspecified)")
-9.7
>>> value("O=c1oc2cc(O)c([N+](=O)[O-])cc2cc1-c1csc(-c2ccc(Cl)cc2)n1")
-11.3
>>> value("COc1cccc(-c2csc(-c3cc4cccc(OC)c4oc3=O)n2)c1")
-23.1

Query: Name the reported displacement value associated with the molecule `O=c1oc2ccccc2cc1-c1nc(-c2ccc(Cl)c(Cl)c2)cs1`
Reply: 61.2

Query: Returns the measured displacement for the input molecule. Input: `Cc1ccc(-c2nc(-c3cc4cc([N+](=O)[O-])c(O)cc4oc3=O)cs2)cc1`
Reply: -4.8

Query: Which displacement value belongs to `Nc1c(C(=O)c2ccc(Cl)cc2)sc2nc(-c3ccccc3)ccc12` ?
Reply: -3.6

Query: Field request: displacement | item: Cc1ccc(C2C(C(=O)c3cccs3)=C(O)C(=O)N2c2nncs2)cc1 (stereo unspecified)
Reply: 121

Query: Query (molecule): `COc1ccc(C(=O)N2CCN(c3cccc(C)c3C)CC2)cc1OC` ; field requested: displacement
Reply: 2.4

Query: Would you mind telling me what displacement value was observed for `Cc1ccc(-c2csc(-c3cc4ccccc4oc3=O)n2)cc1` ?
Reply: 154

----------
# Lookup of reported displacement keyed by entry
# Study system: Bcl-2-like protein 10 (Homo sapiens) (UniProt Q9HD36)
# Assay comment: TR3 peptide-Bcl-B binding displacers, biochemical primary FP assay, phenotype converters (AID 1240);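 also: 0% = Bcl-B with tracer peptide and DMSO and 100% = tracer peptide lacking Bcl-B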
# Conditions: GST-Bcl-B / FITC-TR3 peptide fluorescence polarization; stronger effect = higher value; compound at 3.75 mg/L
Hit rate of the full screen: of about 50,000 compounds, about 800 (1.6%) showed an effect of 50% or more. For the sample, strong results were picked, then their nearest neighbours and some compounds at random.
// return numeric value only (unit: %, not printed)

>>> value("CCCCOC(=O)c1ccc(NC(=O)COc2ccc3c(C)cc(=O)oc3c2)cc1")
28.5

Query: Data request, read-out displacement, for `CC(=O)c1ccc(NC(=O)c2cnccn2)cc1`
Reply: 37.3

Query: Query (compound): `COc1ccc(NC(=O)c2cnccn2)cc1` ; field requested: displacement
Reply: 105

Query: Tell me the measured displacement of `C=CCN1C(=O)/C(=C\c2ccc(-c3cccc(Cl)c3)o2)SC1=S` , please.
Reply: 1.4

Query: Given `O=C(O)CN1C(=O)/C(=C\c2ccc(-c3ccccc3Cl)o2)SC1=S` , state its recorded displacement.
Reply: -121

Query: // displacement lookup, key: `C=CCN1C(=O)/C(=C\c2ccc(-c3ccc(F)c(Cl)c3)o2)SC1=S`
Reply: 39.4

----------
# Study system: Bcl-2-like protein 10 (Homo sapiens)
# Assay comment: TR3 peptide-Bcl-B binding displacers, biochemical primary FP assay, phenotype converters (AID 1240);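 also: 0% = Bcl-B with tracer peptide and DMSO and 100% = tracer peptide lacking Bcl-B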
# Conditions: GST-Bcl-B / FITC-TR3 peptide fluorescence polarization; stronger effect = higher value; compound at 3.75 mg/L
Out of some 50,000 compounds screened, about 800 (1.6%) showed an effect of 50% or more. Only a selection was taken, and strong results are over-represented in it overall.
Experimental endpoint: displacement

>>> value("O=C(Cn1cc(/C=C2\\SC(=S)NC2=O)c2ccccc21)Nc1ccccc1")
"-11.9%"
>>> value("COc1ccccc1NC(=O)CCN1C(=O)S/C(=C/c2ccc(OC)c(OC)c2)C1=O")
"34.6%"
>>> value("O=S(=O)(Nc1ccc(O)cc1)c1cc(Cl)ccc1Cl")
"-0.2%"
>>> value("O=C(Cn1cc(/C=C2\\NC(=S)NC2=O)c2ccccc21)Nc1ccccc1")
"-41.9%"
>>> value("NC(=O)Cn1cc(/C=C2\\C(=O)NC(=O)N(Cc3ccccc3)C2=O)c2ccccc21")
"17%"
>>> value("O=C(Cn1cc(/C=C2/C(=O)NC(=S)N(c3ccccc3)C2=O)c2ccccc21)Nc1ccccc1")
"143%"
>>> value("N#C/C(=C/c1ccco1)c1nc(-c2cc3ccccc3oc2=O)cs1")
"-1.2%"
>>> value("COc1ccc(/C=C2/SC(=O)N(CC(=O)Nc3ccc(F)c(Cl)c3)C2=O)cc1OC")
"12.3%"
>>> value("CC(C)CNC(=O)c1cccc(NC(=O)CN2C(=O)c3ccccc3C2=O)c1")
"13.8%"

Query: What value of displacement has been recorded for this entry: Cc1ccc(C2/C(=C(\O)c3ccccc3)C(=O)C(=O)N2CCCC(=O)O)cc1 (stereo not given)
Reply: 1.4%
